Here, each record is paired with measured Population Normal (%) data.
# Tested on: U2OS
# RUN_DESCRIPTION: Multiplex assay against U2OS
# Type: toxicity, cell-based
# CONDITION_SUMMARY: human, 48 h, 10 µM, compound concentration 10 uM, replicate 1
Express it in %; write the number only.

# count of solved cases: 5
COMPOUND: CN1CCN(c2cc(-c3ccccc3)nc(N)n2)CC1
Population Normal (%): 98

COMPOUND: CC(=O)Nc1cccc2c1c(Sc1ccc(Cl)cc1)c(C)n2CC(=O)O
Population Normal (%): 97

COMPOUND: O=C(NCCN1CCC(n2c(=O)[nH]c3cc(Cl)ccc32)CC1)c1ccc(F)cc1 [HALOPEMIDE]
Population Normal (%): 96

COMPOUND: NCCc1cn(S(=O)(=O)c2c(Cl)nc3sccn23)c2ccccc12.O=C(O)C(=O)O
Population Normal (%): 92

COMPOUND: CC(/C=C1\SC(=S)N(CCCC(=O)Nc2ccc(C(=O)O)c(O)c2)C1=O)=C\c1ccccc1
Population Normal (%): 97

In: For U2OS, provide Population Normal (%) of CCCCC(=O)N(Cc1ccc(-c2ccccc2-c2nnn[nH]2)cc1)[C@H](C(=O)O)C(C)C please.
Out: 98

In: Then what about the compound Br.CS(=O)(=O)Nc1c(O)ccc2c1CCCC2C1=NCCN1 (stereo not drawn) ?
Out: 98

In: Next entry: COc1cccc2c1c(NS(=O)(=O)c1ccc(Cl)s1)nn2Cc1cccc(CNC(=O)C(C)(C)O)c1
Out: 97

In: For CC(C)COc1ccc(CNC(=O)N(Cc2ccc(F)cc2)C2CCN(C)CC2)cc1 then?
Out: 86

In: // query: CC(C)(C)c1cc(NC(=O)Nc2ccc(-c3cn4c(n3)sc3cc(OCCN5CCOCC5)ccc34)cc2)no1
Out: 90

In: Do the same for N#Cc1c(Oc2cccc(OS(=O)(=O)CCCC(F)(F)F)c2)cccc1C(F)(F)F please
Out: 95

In: Similarly, CCc1cc2cc(NS(=O)(=O)c3ccc(C#N)cc3)ccc2n(CC)c1=O ?
Out: 96

In: Here is the next compound: CC(C)c1noc(N2CCC(COc3ccc(-c4ccc(S(C)(=O)=O)cc4)nc3)CC2)n1
Out: 95

In: Queued: CCCCC1=NC2(CCCC2)C(=O)N1Cc1ccc(-c2ccccc2-c2nnn[nH]2)cc1
Out: 96

In: Same read-out for Cc1cccc(NC(=O)CN2CCC(c3ccccn3)CC2)c1.Cl.Cl ?
Out: 96

====

# System: U2OS
# RUN_DESCRIPTION: Multiplex assay against U2OS
# Assay type: toxicity, cell-based
# CONDITION_SUMMARY: human, 12 h, 1 µM, compound concentration 1 uM, replicate 1
# Lookup of reported Population Healthy Nuclei (%) keyed by entry
# unit: % | format: bare number

Guide cases for Population Healthy Nuclei (%), answers given:
MOLECULE: Cc1onc(-c2ccccc2Cl)c1C(=O)N(C)c1ccc(Cl)cc1
MEASURE_NAME: Population Healthy Nuclei (%)
OBSERVED_VALUE: 67

MOLECULE: CC(C)COc1ccc(CNC(=O)N(Cc2ccc(F)cc2)C2CCN(C)CC2)cc1
MEASURE_NAME: Population Healthy Nuclei (%)
OBSERVED_VALUE: 67

MOLECULE: Cl.N=C(N)NC(=O)Cc1c(Cl)cccc1Cl [GUANFACINE HYDROCHLORIDE]
MEASURE_NAME: Population Healthy Nuclei (%)
OBSERVED_VALUE: 55

MOLECULE: O=C(CCCc1ccccc1)Nc1nc2ccccc2c(=O)s1
MEASURE_NAME: Population Healthy Nuclei (%)
OBSERVED_VALUE: 64

Could you now look at the following molecule, please?
In: Returns the measured Population Healthy Nuclei (%) for the input molecule. Input: Cc1noc(-c2ccc(-c3ccc(CC(=O)O)cc3)cc2)c1NC(=O)O[C@H](C)c1ccccc1Cl
Out: 69

====

# Tested on: U2OS
# RUN_DESCRIPTION: Multiplex assay against U2OS
# Type: toxicity, cell-based
# CONDITION_SUMMARY: human, 24 h, 1 µM, compound concentration 1 uM, replicate 1
Population Mitochondria Different-Phenotype (%) reference
Only the number, expressed in %, is required.

COMPOUND: CCCCCC(O)/C=C/[C@H]1C(=O)CC(O)C1C/C=C\CCCC(=O)O (stereo partly specified)
SYSTEM_UNDER_TEST: U2OS
OBSERVED_VALUE: 0
//
COMPOUND: CC(C)(C)c1cc(NC(=O)Nc2ccc(-c3cn4c(n3)sc3cc(OCCN5CCOCC5)ccc34)cc2)no1
SYSTEM_UNDER_TEST: U2OS
OBSERVED_VALUE: 8
//
COMPOUND: CCc1cc2cc(NS(=O)(=O)c3ccc(C#N)cc3)ccc2n(CC)c1=O
SYSTEM_UNDER_TEST: U2OS
OBSERVED_VALUE: 2

In: Form entry - test system: U2OS; read-out: Population Mitochondria Different-Phenotype (%); compound: CC[C@@H](C)Nc1nc(C)nc2c(-c3ccc(OC)nc3C)c(C)nn12
Out: 2

====

# Tested on: Fibroblast
# RUN_DESCRIPTION: Multiplex assay against human fibroblast
# Format: toxicity, cell-based
# CONDITION_SUMMARY: 12 h, 1 µM, compound concentration 1 uM, replicate 2
Quick list: Total Cell Count per entry.
Lab note: jot down the number only; don't add units.

Recorded Total Cell Count, per entry:
MOLECULE: CC(C)c1noc(N2CCC(COc3ccc(-c4ccc(S(C)(=O)=O)cc4)nc3)CC2)n1
Total Cell Count: 149
//
MOLECULE: Cc1cccc(NC(=O)CN2CCC(c3ccccn3)CC2)c1.Cl.Cl
Total Cell Count: 232
//
MOLECULE: CC(/C=C1\SC(=S)N(CCCC(=O)Nc2ccc(C(=O)O)c(O)c2)C1=O)=C\c1ccccc1
Total Cell Count: 157
//
MOLECULE: N#Cc1cc(F)cc(-c2nc(-c3ccc(F)cn3)no2)c1
Total Cell Count: 93
//
MOLECULE: CC(C)COc1ccc(CNC(=O)N(Cc2ccc(F)cc2)C2CCN(C)CC2)cc1
Total Cell Count: 160

In: Form field: Total Cell Count recorded for N#Cc1c(Oc2cccc(OS(=O)(=O)CCCC(F)(F)F)c2)cccc1C(F)(F)F with Fibroblast (enter value)
Out: 148

In: Try this molecule too: Br.CS(=O)(=O)Nc1c(O)ccc2c1CCCC2C1=NCCN1 (centres undefined)
Out: 192

In: Another molecule: COc1cccc2c1c(NS(=O)(=O)c1ccc(Cl)s1)nn2Cc1cccc(CNC(=O)C(C)(C)O)c1
Out: 112

In: Repeat with CCCCC(=O)N(Cc1ccc(-c2ccccc2-c2nnn[nH]2)cc1)[C@H](C(=O)O)C(C)C
Out: 156

====

Reported Population Healthy Nuclei (%) values are given for each entry in this list.
# System: Fibroblast
# RUN_DESCRIPTION: Multiplex assay against human fibroblast
# Assay type: toxicity, cell-based
# CONDITION_SUMMARY: 48 h, 1 µM, compound concentration 1 uM, replicate 1
Give the quantity in %, number only.

Field: example entries. Status: answers known.
MOLECULE: CCCCC(=O)N(Cc1ccc(-c2ccccc2-c2nnn[nH]2)cc1)[C@H](C(=O)O)C(C)C
MEASURE_NAME: Population Healthy Nuclei (%)
UNIT_DESCRIPTOR: %
OBSERVED_VALUE: 71
//
MOLECULE: O=C1[C@H](Cc2ccc(O)cc2)N2C(=O)CCN(C(=O)NCc3ccccc3)[C@H]2CN1Cc1cccc2ccccc12
MEASURE_NAME: Population Healthy Nuclei (%)
UNIT_DESCRIPTOR: %
OBSERVED_VALUE: 59
//
MOLECULE: O=C(NCCN1CCC(n2c(=O)[nH]c3cc(Cl)ccc32)CC1)c1ccc(F)cc1 [HALOPEMIDE]
MEASURE_NAME: Population Healthy Nuclei (%)
UNIT_DESCRIPTOR: %
OBSERVED_VALUE: 68

// next entry
In: Lab request: please report Population Healthy Nuclei (%) under test system Fibroblast for Cc1noc(-c2ccc(-c3ccc(CC(=O)O)cc3)cc2)c1NC(=O)O[C@H](C)c1ccccc1Cl
Out: 73

====

# System: U2OS
# RUN_DESCRIPTION: Multiplex assay against U2OS
# Type: toxicity, cell-based
# CONDITION_SUMMARY: human, 48 h, 1 µM, compound concentration 1 uM, replicate 2
The threshold is inclusive: Population Pyknosed Nuclei (%) of exactly 10% counts as criterion met; values below receive criterion not met.

COMPOUND: O=C1[C@H](Cc2ccc(O)cc2)N2C(=O)CCN(C(=O)NCc3ccccc3)[C@H]2CN1Cc1cccc2ccccc12
GROUP_LABEL: criterion met

In: Record CN1CCN(c2cc(-c3ccccc3)nc(N)n2)CC1 ; criterion: Population Pyknosed Nuclei (%) no lower than 10%. Met?
Out: criterion not met

In: Field entry: CCCCCC(O)/C=C/[C@H]1C(=O)CC(O)C1C/C=C\CCCC(=O)O (some centres undefined)
Out: criterion not met

In: CC(C)COc1ccc(CNC(=O)N(Cc2ccc(F)cc2)C2CCN(C)CC2)cc1 [PIMAVANSERIN] ?
Out: criterion met
